Field IC50: reported value for Mast/stem cell growth factor receptor Kit (Homo sapiens); entries drawn from several documents.

Recorded results for 3 compounds are shown here.
{"columns": ["Cpd smiles", "IC50"],
 "data": [
  ["CCN1CCC(Nc2ccc3c(c2)/C(=C(/c2nc(C)c[nH]2)c2cc(F)c(Cl)cc2Cl)C(=O)N3)CC1", "< 50 nM"],
  ["O=C(c1c(F)ccc(NS(=O)(=O)c2cccc(OC(F)F)c2)c1F)c1c[nH]c2ncc(Cl)cc12", "≤ 10000 nM"],
  ["COc1ccc(Nc2ccc(C(=O)c3c[nH]c4ncnc(N[C@@H](C)c5ccc(F)cc5)c34)c(F)n2)cn1", "> 1000 nM"]
]}

API: the following record is the query input.
Lookup: Identify the measured IC50 of "O=C(Nc1ccc(Cl)c(C(F)(F)F)c1)OCc1cccc(-c2cn[nH]c2)c1" for Mast/stem cell growth factor receptor Kit (Homo sapiens).
Found: < 50 nM

* * *

Field IC50: reported value for Mast/stem cell growth factor receptor Kit (Homo sapiens); entries drawn from several documents.

Recorded results for 6 compounds are shown here.
{"columns": ["Compound", "IC50"],
 "data": [
  ["CC(C)S(=O)(=O)Nc1ccc(F)c(C(=O)c2c[nH]c3ncc(-c4cccnc4)cc23)c1F", "≤ 10 µM"],
  ["CN(C)S(=O)(=O)Nc1ccc(F)c(C(=O)c2c[nH]c3nccc(Cl)c23)c1F", "≤ 10 µM"],
  ["Cn1cc(-c2cc(Oc3cc(F)c(NC(=O)c4cccn(-c5ccc(F)cc5)c4=O)cc3F)ccn2)cn1", "≤ 0.1 µM"],
  ["CCCS(=O)(=O)Nc1ccc(F)c(C(=O)c2c[nH]c3ncc(C)cc23)c1F", "≤ 10 µM"],
  ["COc1cnc2[nH]cc(C(=O)c3c(F)ccc(NS(=O)(=O)CCC(F)(F)F)c3F)c2c1", "≤ 10 µM"],
  ["COc1ccc(Nc2ccc(C(=O)c3c[nH]c4ncnc(NCC5CCCO5)c34)c(F)n2)cn1 (centres unmarked)", "< 1 µM"]
]}

Lookup: Identify the measured IC50 of "CCCS(=O)(=O)Nc1ccc(F)c(C(=O)c2c[nH]c3ncc(-c4ccc(C(=O)NCC)nc4)cc23)c1F" for Mast/stem cell growth factor receptor Kit (Homo sapiens).
Found: ≤ 10 µM

Lookup: Identify the measured IC50 of "Fc1nc(Nc2ccc(C3CC3)nc2)ccc1Cc1c[nH]c2ncnc(NCC(F)(F)F)c12" for Mast/stem cell growth factor receptor Kit (Homo sapiens).
Found: < 1 µM

Lookup: Identify the measured IC50 of "CC(=O)Nc1cccc(-c2cnc3[nH]cc(C(=O)c4ccccc4F)c3c2)c1" for Mast/stem cell growth factor receptor Kit (Homo sapiens).
Found: ≤ 10 µM

Lookup: Identify the measured IC50 of "COCCNC(=O)Nc1cccc(C(=O)c2c[nH]c3ncc(-c4cccnc4)cc23)c1" for Mast/stem cell growth factor receptor Kit (Homo sapiens).
Found: ≤ 10 µM

Lookup: Identify the measured IC50 of "CCCS(=O)(=O)Nc1ccc(F)c(C(=O)c2c[nH]c3ncc(-c4ccc(NC(C)=O)cc4)cc23)c1F" for Mast/stem cell growth factor receptor Kit (Homo sapiens).
Found: ≤ 10 µM

* * *

Field IC50: reported value for Mast/stem cell growth factor receptor Kit (Homo sapiens, UniProt P10721); entries drawn from several documents.

{"columns": ["Cpd smiles", "IC50"],
 "data": [
  ["Cc1c(O)cccc1C(=O)c1c[nH]c2ncc(-c3cccnc3)cc12", "≤ 10 µM"],
  ["CS(=O)(=O)Nc1cccc(-c2cnc3[nH]cc(C(=O)c4ccc5c(c4)OC(F)(F)O5)c3c2)c1", "≤ 10 µM"],
  ["COc1ccc(F)c(C(=O)c2c[nH]c3nccc(Cl)c23)c1", "≤ 10 µM"]
]}

Lookup: Record request: IC50 value, item "COc1ccnc2[nH]cc(C(=O)c3c(F)ccc(NS(=O)(=O)c4cccc(F)c4)c3F)c12"
Found: ≤ 10 µM

Lookup: Record request: IC50 value, item "COCCOCCOCCOCCOCCOCCOCCNC(=O)c1c(C)[nH]c(/C=C2\C(=O)Nc3ccc(F)cc32)c1C"
Found: 0.32 µM

Lookup: Record request: IC50 value, item "CCN(CC)CCCNC(=O)c1cnc(N)c2c(-c3ccc(NC(=O)Nc4cccc(F)c4)cc3)csc12"
Found: 0.035 µM

Lookup: Record request: IC50 value, item "COc1cc2c(Oc3ccc(NC(=O)C4(C(=O)Nc5ccc(F)cc5)CC4)cc3)ccnc2cc1OC(=O)N1CCC(F)(F)CC1"
Found: 0.1 to 1 µM
